# Test system: Escherichia coli (ATCC25922)
# test_method_notes: MIC, broth microdilution (CLSI), Escherichia coli ATCC25922
# conditions_used: ATCC25922, read-out: E. coli MIC, Table 15, NI = No inhibition
Threshold-based label: MIC under 30 µg/mL gives class 1, MIC not under 30 µg/mL gives class 0.

[
  {
    "compound": "Cl.Cl.Cl.NCCNCC(=O)CNc1cc(C(F)(F)F)cc2c1Nc1ccc(N3CCCC3)cc1S2 [compound 317]",
    "category": "class 0"
  },
  {
    "compound": "N#Cc1cc(NC2CCN(CCN)CC2)c2c(c1)Sc1ccccc1N2 [compound 215]",
    "category": "class 0"
  },
  {
    "compound": "NCCNC1CCCC(C(=O)Nc2cc(C(F)(F)F)cc3c2Nc2ccccc2S3)C1 (centres unmarked) [compound 163]",
    "category": "class 1"
  },
  {
    "compound": "NC1CC(C(=O)Nc2cc(C(F)(F)F)cc3c2Nc2ccccc2S3)C1 (centres unmarked) [compound 175]",
    "category": "class 0"
  },
  {
    "compound": "NC1CCCC(CC(=O)Nc2cc(C(F)(F)F)cc3c2Nc2ccccc2S3)C1 (centres unmarked) [compound 167]",
    "category": "class 1"
  },
  {
    "compound": "NCCCNC1CCCC(C(=O)Nc2cc(C(F)(F)F)cc3c2Nc2ccccc2S3)C1 (centres unmarked) [compound 162]",
    "category": "class 0"
  },
  {
    "compound": "NCCN1CCC(Nc2cc(C(F)(F)F)cc3c2Nc2ccc(Cl)cc2S3)CC1 [compound 226]",
    "category": "class 1"
  },
  {
    "compound": "N[C@@H]1CCC[C@H](C(=O)Nc2cc(C(F)(F)F)cc3c2Nc2ccccc2S3)C1 [compound 125]",
    "category": "class 1"
  }
]

----------
# Tested on: Staphylococcus aureus subsp. aureus (ATCC29213)
# test_method_notes: MIC, broth microdilution (CLSI), Staphylococcus aureus subsp. aureus ATCC29213
# Format: cell-based
# conditions_used: ATCC29213, Table 15, read-out: S. aureus ("wound") (MIC)
quantity_measured: log10 of MIC (log10 of the value in mg/L)

[
  {
    "compound": "Cl.Cl.NCCN1CCC(Nc2cc(C(=O)NNc3ccc(F)cc3)cc3c2Nc2ccccc2S3)CC1",
    "log10 of MIC": 1.20
  },
  {
    "compound": "FC(F)(F)c1cc(NC2CCNCC2)c2c(c1)Sc1cccnc1N2",
    "log10 of MIC": 0.90
  },
  {
    "compound": "CC1CC(C)CN(c2ccc3c(c2)Sc2cc(C(F)(F)F)cc(NC4CCN(CCN)CC4)c2N3)C1.Cl.Cl.Cl (centres unmarked)",
    "log10 of MIC": 0.00
  },
  {
    "compound": "Cc1cc(NC2CCN(CCN)CC2)c2c(c1)Sc1cc(Br)ccc1N2.Cl",
    "log10 of MIC": 1.20
  },
  {
    "compound": "Cl.NCCNCCCNc1cc(C(F)(F)F)cc2c1Nc1ccc(N3CCC4CCCC43)cc1S2 (centres unmarked)",
    "log10 of MIC": 0.60
  },
  {
    "compound": "Cl.NCCN1CCC(Nc2cc(C(F)(F)F)cc3c2Nc2ccc(N4CCCC(F)C4)cc2S3)CC1 (centres unmarked)",
    "log10 of MIC": 0.90
  },
  {
    "compound": "NCC(O)CNC(=O)c1cc2c(c([N+](=O)[O-])c1)Nc1ccccc1S2 (centres unmarked)",
    "log10 of MIC": 1.97
  },
  {
    "compound": "NC1CCCC(C(=O)Nc2cc(C(F)(F)F)cc3nc4ccccc4nc23)C1 (centres unmarked)",
    "log10 of MIC": 2.32
  }
]
